Molecular target: T1, Gadd45β/MKK7 complex (biotin-hGadd45β with coated GST-MKK7, ELISA format) (human, UniProt O75293 1-160; O14733 1-419, biotinylated (sites not given))
T1 construct: not shown: glutathione S-transferase (GST) fusion partner
T1 sequence (looked up) 1: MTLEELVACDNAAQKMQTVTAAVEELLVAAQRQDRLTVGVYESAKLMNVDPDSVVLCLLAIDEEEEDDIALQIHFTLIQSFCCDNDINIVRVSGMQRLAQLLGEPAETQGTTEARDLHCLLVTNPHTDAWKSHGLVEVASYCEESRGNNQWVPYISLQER
T1 sequence (looked up) 2: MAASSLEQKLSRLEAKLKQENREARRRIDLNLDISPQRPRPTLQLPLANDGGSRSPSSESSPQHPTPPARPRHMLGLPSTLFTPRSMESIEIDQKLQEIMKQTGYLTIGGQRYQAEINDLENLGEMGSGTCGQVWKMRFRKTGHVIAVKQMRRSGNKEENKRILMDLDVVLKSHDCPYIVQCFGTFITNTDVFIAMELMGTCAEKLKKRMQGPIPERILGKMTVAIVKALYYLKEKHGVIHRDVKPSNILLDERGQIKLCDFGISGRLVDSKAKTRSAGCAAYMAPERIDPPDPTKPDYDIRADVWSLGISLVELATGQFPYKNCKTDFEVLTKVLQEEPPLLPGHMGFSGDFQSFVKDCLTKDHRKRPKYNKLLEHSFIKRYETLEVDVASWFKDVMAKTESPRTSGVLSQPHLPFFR
Assay: competition ELISA; coated GST-MKK7, biotin-hGadd45β; single dose
* marks the point of attachment. Fmoc = O=C(OCC1c2ccccc2-c2ccccc21)*; ClZ = O=C(OCc1ccccc1Cl)*; Bz = O=C(c1ccccc1)*; Myr = myristyl
Friendly reminder: % Inhibition of Gadd45β-MKK7 binding below 30% is yes (1), at or above is no (0).

Below, 5 binders whose answers are already recorded.
binder	assigned-category
Ac-YDRF-NH2 [Ac-YDRF-NH2]	yes (1)
Fmoc-YDHF-NH2 [Fmoc-YDHF-NH2]	no (0)
Bz-YDHF-NH2 [Benzoic acid-YDHF-NH2]	yes (1)
Ac-YPRF-NH2 [Ac-YPRF-NH2]	yes (1)
Fmoc-YERF-NH2 [Fmoc-YERF-NH2]	no (0)

Threshold test, % Inhibition of Gadd45β-MKK7 binding < 30%: Myr-YDHQ-NH2 [Myr-YDHQ-NH2]
yes (1)

// query: ClZ-YERF-NH2 [2CI-Z-YERF-NH2]
no (0)

// query: Ac-YEAF-NH2 [Ac-YEAF-NH2]
yes (1)
